assay: Mammalian toxicity, oral, Swiss white mice
Type: in vivo
runConditions: mouse, in vivo, po, Table 2; polysulfide derivatives, oral in corn oil; read-out: Mice Toxicity LD50
measurementKind: LD50 (mg/kg)
Value expressed in mg/kg; do not type the unit.

Guide cases for LD50, answers given:
I'd like to know its LD50. The compound in question is CCCCCCOSSN(C)C(=O)Oc1cccc2c1OC(C)(C)C2
72

What would you report for CCCCCCOSN(C)C(=O)Oc1cccc2c1OC(C)(C)C2 ?
37

Consider next the compound COSSN(C)C(=O)Oc1cccc2c1OC(C)(C)C2 in the same way.
48

Please look at the following compound next.
What measured LD50 goes with COSN(C)C(=O)Oc1cccc2c1OC(C)(C)C2 ?
43

* * *

assay: Mammalian toxicity, oral, Swiss white mice
Assay type: in vivo
runConditions: mouse, in vivo, po, Table 1; oral in corn oil; samples contained polysulfide derivative in the amounts indicated; read-out: Mice LD50
Strictly below 90 mg/kg in LD50: met. Otherwise: not met.

State whether 90 mg/kg exceeds LD50 recorded for CN(SOCc1ccc(C(C)(C)C)cc1)C(=O)Oc1cccc2c1OC(C)(C)C2 .
not met

# repeat for CC(C)c1cccc(OC(=O)N(C)SOCc2ccccc2)c1
not met

Record: CCCCCCCCCCCCOSN(C)C(=O)Oc1cccc2c1OC(C)(C)C2
not met

Same for COSN(C)C(=O)Oc1cccc2c1OC(C)(C)C2
met

Follow-up item: CN(SOC1CCCCC1)C(=O)Oc1cccc2c1OC(C)(C)C2
met

***
In the record for CCCCOSN(C)C(=O)Oc1ccccc1OC(C)C , is LD50 less than 90 mg/kg?
not met

Record: CCCCOSN(C)C(=O)Oc1cccc(C(C)C)c1
not met

What about this compound? CCCCCCCCCCCCCCCCCCOSN(C)C(=O)Oc1cccc2c1OC(C)(C)C2
not met

Now the compound CCCCCCCCCCOSN(C)C(=O)Oc1cccc2c1OC(C)(C)C2
not met

Please answer likewise for CCCCCCCCOSN(C)C(=O)Oc1cccc2c1OC(C)(C)C2
not met

Input CN(SOCc1ccccc1)C(=O)Oc1cccc2c1OC(C)(C)C2
met

Next entry: CC(C)Oc1ccccc1OC(=O)N(C)SOCc1ccccc1
not met

* * *

Tested on: house flies, Musca domestica
assay: Insecticidal activity against house flies, topical application on the notum, 24 h mortality
Type: in vivo
runConditions: Musca domestica, read-out: House flies LD50
measurementKind: LD50 (mg/kg)
# output: bare number, implied unit mg/kg

A selection of reference data follows.
State the recorded LD50 for this entry: CCCCCCCCCCCCCCCCCCOSN(C)C(=O)Oc1cccc2c1OC(C)(C)C2 [Example 18]
75

Field entry: CN(SOCc1ccc(C(C)(C)C)cc1)C(=O)Oc1cccc2c1OC(C)(C)C2 [Example 17]
15.5

Also need CN(SOCc1ccccc1)C(=O)Oc1cccc2c1OC(C)(C)C2 [Example 6] , thanks.
7.5

And then CN(SOC1CCCCC1)C(=O)Oc1cccc2c1OC(C)(C)C2 [Example 5] , what is it?
21.5

Try this compound next: CCCCCCCCOSN(C)C(=O)Oc1cccc2c1OC(C)(C)C2 [Example 14]
13

Further cases:
Could you share which LD50 value was measured for CC(C)c1cccc(OC(=O)N(C)SOCc2ccccc2)c1 [Example 11] ?
175

Request: CCCCCCCCCCCCOSN(C)C(=O)Oc1cccc2c1OC(C)(C)C2 [Example 7]
21

Also need CNC(=O)Oc1cccc2c1OC(C)(C)C2 [Carbofuran, reference compound] , thanks.
11

// next record CCC(CC)OSN(C)C(=O)Oc1cccc2c1OC(C)(C)C2 [Example 12]
21

Further, for CCCCCCCCCCOSN(C)C(=O)Oc1cccc2c1OC(C)(C)C2 [Example 15] ?
7.3
